# assayProtocol: Half life in dog, iv
# Type: ADME, organism-based, Canis lupus familiaris
# conditionsUsed: in vivo
propertyLabel: half-life (h)

(I) CC(C)(C)N1CCC(c2cc(-c3ccc(F)cc3Cl)c3ccc(=O)n(-c4c(Cl)cccc4Cl)c3c2)CC1
(II) CC(C)(C)N1CCC(c2cc3c(ccc(=O)n3-c3c(Cl)cccc3Cl)c(-c3ccc(F)cc3F)n2)CC1
**Q:** Between I and II , whose recorded half-life is greater? Reply briefly: the label of your chosen item.
**A:** II
(II: 15.5 h, I: 5.59 h)

(A) CC(C)(C)N1CCC(c2cc3c(ccc(=O)n3-c3c(Cl)cccc3Cl)c(-c3ccccc3Cl)n2)CC1
(B) CC(C)(C)N1CCC(c2cc(-c3ccc(F)cc3F)c3ccc(=O)n(-c4c(Cl)cccc4Cl)c3c2)CC1
**Q:** Please indicate which item has the smaller measured half-life: A versus B State your choice using its label.
**A:** A

====

# testedTarget: Mitogen-activated protein kinase 14 (Homo sapiens, UniProt Q16539)
# Sequence (Q16539 whole entry): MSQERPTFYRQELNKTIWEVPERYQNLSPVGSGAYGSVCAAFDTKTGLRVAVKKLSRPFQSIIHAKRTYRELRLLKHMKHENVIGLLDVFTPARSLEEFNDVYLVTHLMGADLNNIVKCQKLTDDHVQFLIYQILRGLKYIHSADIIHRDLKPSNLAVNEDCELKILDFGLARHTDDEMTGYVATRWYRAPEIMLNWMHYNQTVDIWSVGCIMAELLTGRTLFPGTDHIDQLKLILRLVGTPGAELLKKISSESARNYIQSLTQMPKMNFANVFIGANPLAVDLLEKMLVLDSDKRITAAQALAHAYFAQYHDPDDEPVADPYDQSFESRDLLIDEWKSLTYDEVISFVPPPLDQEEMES
# assayProtocol: Inhibition of TNF alpha release in THP1 cells
# Type: functional, cell-based, THP-1
propertyLabel: IC50 (nM)

Sample records with IC50:
> print(dat)
                      structuresmilesstring  reported
1  CC(C)(C)N1CC=C(c2cc(-c3ccc(F)cc3Cl)c3ccc(=O)n(-c4c(Cl)cccc4Cl)c3c2)CC1      0.74
2  CC(C)(C(=O)O)N1CCC(c2cc(-c3ccc(F)cc3Cl)c3ccc(=O)n(-c4c(Cl)cccc4Cl)c3c2)CC1      3.75
3  CC(C)(C)N1CCC(Oc2cc(-c3ccc(F)cc3F)c3ccc(=O)n(-c4c(F)cccc4F)c3c2)CC1       2.2
4  C[C@@H](C(=O)O)N1CCC(c2cc(-c3ccc(F)cc3Cl)c3ccc(=O)n(-c4c(Cl)cccc4Cl)c3c2)CC1       3.2
5  CC(C)(C)N1CCC(Oc2cc(-c3ccccc3Cl)c3ccc(=O)n(-c4c(Cl)cccc4Cl)c3c2)CC1       1.8

(I) CC(C)(C)N1CCC(Oc2cc(-c3ccc(F)cc3Cl)c3ccc(=O)n(-c4c(Cl)cccc4Cl)c3c2)CC1
(II) C[C@H](C(=O)O)N1CCC(c2cc(-c3ccc(F)cc3Cl)c3ccc(=O)n(-c4c(Cl)cccc4Cl)c3c2)CC1
(III) CC(C)(C)N1CCC(Oc2cc(-c3ccc(F)cc3F)c3ccc(=O)n(-c4c(Cl)cccc4Cl)c3c2)CC1
**Q:** Sort ascending by IC50. # answer = labels listed in requested order
**A:** III, I, II
(III: 0.77 nM, I: 2.4 nM, II: 3.8 nM)

====

# assayProtocol: Plasma clearance in dog
# Assay type: ADME, organism-based, Canis lupus familiaris
propertyLabel: clearance (mL/min/kg)

# count of solved cases: 2
> print(dat)
                      structuresmilesstring  resultunits  reported
1  CC(C)(C)N1CCC(c2cc(-c3ccc(F)cc3Cl)c3ccc(=O)n(-c4c(Cl)cccc4Cl)c3c2)CC1    mL/min/kg      26.8
2  CC(C)(C)N1CCC(c2cc3c(ccc(=O)n3-c3c(Cl)cccc3Cl)c(-c3ccc(F)cc3F)n2)CC1    mL/min/kg      20.5

(a) CC(C)(C)N1CCC(c2cc(-c3ccc(F)cc3F)c3ccc(=O)n(-c4c(Cl)cccc4Cl)c3c2)CC1
(b) CC(C)(C)N1CCC(c2cc3c(ccc(=O)n3-c3c(Cl)cccc3Cl)c(-c3ccccc3Cl)n2)CC1
**Q:** Name the one with the greater clearance value, either a or b as given. Give the label of your selection.
**A:** b

====

# assayProtocol: Half life in rat, iv
# Format: ADME, organism-based
# conditionsUsed: in vivo
propertyLabel: half-life (h)

Examples with their reported half-life follow.
> print(dat)
                                   compound  reported
1  CC(C)(C)N1CCC(c2cc3c(ccc(=O)n3-c3c(Cl)cccc3Cl)c(-c3ccc(F)cc3Cl)n2)CC1      3.69
2  O=c1ccc2c(-c3ccc(F)cc3Cl)cc(C3CC4CCC(C3)N4)cc2n1-c1c(Cl)cccc1Cl (centres undefined)      2.56

(a) CC(C)(C)N1CCC(c2cc(-c3ccc(F)cc3Cl)c3ccc(=O)n(-c4c(F)cccc4F)c3c2)CC1
(b) CC(C)(C)N1CCC(c2cc(-c3ccc(F)cc3Cl)c3ccc(=O)n(-c4c(Cl)cccc4Cl)c3c2)CC1
**Q:** Determine, for a and b , which has the greater value of half-life. Selection: enter the item's label.
**A:** a

====

# assayProtocol: Oral bioavailability in dog
# Type: ADME, organism-based, Canis lupus familiaris
# conditionsUsed: in vivo
propertyLabel: bioavailability (%)

> print(dat)
                      structuresmilesstring  reported
1  CC(C)(C)N1CCC(c2cc3c(ccc(=O)n3-c3c(Cl)cccc3Cl)c(-c3ccc(F)cc3F)n2)CC1      99.3

(a) CC(C)(C)N1CCC(c2cc(-c3ccc(F)cc3F)c3ccc(=O)n(-c4c(Cl)cccc4Cl)c3c2)CC1
(b) CC(C)(C)N1CCC(c2cc(-c3ccc(F)cc3Cl)c3ccc(=O)n(-c4c(Cl)cccc4Cl)c3c2)CC1
(c) CC(C)(C)N1CCC(c2cc3c(ccc(=O)n3-c3c(Cl)cccc3Cl)c(-c3ccccc3Cl)n2)CC1
**Q:** Let's sort these by bioavailability, smallest first. Go ahead? Labels, requested order.
**A:** c, a, b

====

# assayProtocol: Volume of distribution in rat
# Type: ADME, organism-based
# conditionsUsed: in vivo, read-out: Vdss
propertyLabel: Vd (L/kg)

Known results for compounds:
> print(dat)
                                   compound  propertylabel  reported
1  CC1(C)C=C(c2cc(-c3ccc(F)cc3Cl)c3ccc(=O)n(-c4c(Cl)cccc4Cl)c3c2)CC(C)(C)N1             Vd      7.32
2  CC(C)(C)N1CCC(c2cc(-c3ccc(F)cc3Cl)c3ccc(=O)n(-c4c(F)cccc4F)c3c2)CC1             Vd      3.77
3  CC(C)N1C2CCC1CC(c1cc(-c3ccc(F)cc3Cl)c3ccc(=O)n(-c4c(Cl)cccc4Cl)c3c1)C2 (stereo not drawn)             Vd      5.23
4  CC(C)(C)N1CCC(c2cc3c(ccc(=O)n3-c3c(Cl)cccc3Cl)c(-c3ccc(F)cc3Cl)n2)CC1             Vd      11.4
5  CC(C)(C)N1CCC(c2cc3c(ccc(=O)n3-c3c(Cl)cccc3Cl)c(-c3ccccc3Cl)n2)CC1             Vd      10.1

(a) C[C@@H](C(=O)O)N1CCC(c2cc(-c3ccc(F)cc3Cl)c3ccc(=O)n(-c4c(Cl)cccc4Cl)c3c2)CC1
(b) CC(C)(C)N1CCC(Oc2cc(-c3ccccc3Cl)c3ccc(=O)n(-c4c(Cl)cccc4Cl)c3c2)CC1
**Q:** Of a and b , whose reported Vd is numerically smaller? Which one? Tell me its label.
**A:** a
(a: 0.7 L/kg, b: 6.17 L/kg)

====

# testedTarget: Mitogen-activated protein kinase 14 (Homo sapiens, UniProt Q16539)
# assayProtocol: Inhibition of LPS stimulated TNF alpha release in whole blood
# Format: functional, tissue-based
propertyLabel: IC50 (nM)

Check out these entries, answers already filled in.
> print(dat)
                                   compound  reported
1  COC(=O)C(C)N1CCC(c2cc(-c3ccc(F)cc3Cl)c3ccc(=O)n(-c4c(Cl)cccc4Cl)c3c2)CC1 (stereo not given)        28
2  CC(C)(C(=O)O)N1CCC(c2cc(-c3ccc(F)cc3Cl)c3ccc(=O)n(-c4c(Cl)cccc4Cl)c3c2)CC1      79.1
3  CC(C)(C)N1CCC(c2cc(-c3ccc(F)cc3Cl)c3ccc(=O)n(-c4c(F)cccc4F)c3c2)CC1         1
4  COC(=O)C(C)(C)N1CCC(c2cc(-c3ccc(F)cc3Cl)c3ccc(=O)n(-c4c(Cl)cccc4Cl)c3c2)CC1       130

(1) CC(C)(C)N1CCC(c2cc(-c3ccc(F)cc3Cl)c3ccc(=O)n(-c4c(Cl)cccc4Cl)c3c2)CC1
(2) CC(C)(C)N1CC=C(c2cc(-c3ccc(F)cc3Cl)c3ccc(=O)n(-c4c(Cl)cccc4Cl)c3c2)CC1
(3) CC(C)(C)N1CCC(Oc2cc(-c3ccc(F)cc3F)c3ccc(=O)n(-c4c(F)cccc4F)c3c2)CC1
(4) CC(C)(C)N1CCC(c2cc3c(ccc(=O)n3-c3c(Cl)cccc3Cl)c(-c3ccc(F)cc3Cl)n2)CC1
(5) C[C@@H](C(=O)O)N1CCC(c2cc(-c3ccc(F)cc3Cl)c3ccc(=O)n(-c4c(Cl)cccc4Cl)c3c2)CC1
**Q:** Reorder the items by IC50, least to greatest. Quick reminder: the answer is the labels in the order asked.
**A:** 1, 4, 3, 5, 2

(A) CC(C)(C)N1CCC(Oc2cc(-c3ccccc3Cl)c3ccc(=O)n(-c4c(Cl)cccc4Cl)c3c2)CC1
(B) CC(C)(C)N1CCC(c2cc3c(ccc(=O)n3-c3c(Cl)cccc3Cl)c(-c3ccccc3Cl)n2)CC1
(C) C[C@H](C(=O)O)N1CCC(c2cc(-c3ccc(F)cc3Cl)c3ccc(=O)n(-c4c(Cl)cccc4Cl)c3c2)CC1
**Q:** Order these by IC50, descending, and give the full ranking. List labels; respect the requested ordering.
**A:** C, A, B
(C: 25 nM, A: 13 nM, B: 6.8 nM)

(1) CC(C)(C)N1CCC(c2cc(-c3ccc(F)cc3F)c3ccc(=O)n(-c4c(Cl)cccc4Cl)c3c2)CC1
(2) CC1(C)C=C(c2cc(-c3ccc(F)cc3Cl)c3ccc(=O)n(-c4c(Cl)cccc4Cl)c3c2)CC(C)(C)N1
**Q:** Lab note: check whether 1 or 2 has the lower measured IC50. Could you answer with the label of the item you picked?
**A:** 1
(1: 2.4 nM, 2: 24.2 nM)
